Tested on: Pepsin
Construct: purchased Merck Millipore
Assay: Protease stability in simulated gastric fluid (Pepsin-SGF, FaSSGF)
Assay type: in vitro ADME
Settings: simulated gastric fluid with pepsin (Pepsin-SGF), 60 min, 1 μM peptide, 37° C., read-out: FaSSGF 60 (min), remaining percent of peptide
Starred links: 1 amine or outer side, 2 acyl side, 3 side chain; linkers in the order of their positions; H or OH if unused. Positions of bridges follow the written chain, without caps; N, C: chain ends. Non-standard residues stand in square brackets, D forms with d. Residues, ends and D or L forms follow the SMILES beside them. *: point of attachment. X3 = CN(CCCCC(=O)N[C@@H](CS[*:2])C(=O)[*:1])[*:3]; Trp(7-Me) = Cc1cccc2c(C[C@H](N)C(=O)O)c[nH]c12; 2Nal = N[C@@H](Cc1ccc2ccccc2c1)C(=O)O; AEF = NCCOc1ccc(C[C@H](N)C(=O)O)cc1; 3Pal = N[C@@H](Cc1cccnc1)C(=O)O; Thp = NC1(C(=O)O)CCOCC1; Me2NCH2CH2 = CN(C)CC*; Ava = NCCCCC(=O)O; Sar = CNCC(=O)O
result-type: remaining at 1 h, 1 µM (%)
Report the value in % with no unit label.

Worked set:
CC(=O)NCCCC[C@@H]1NC(=O)[C@H](Cc2c[nH]c3c(C)cccc23)NC(=O)[C@H]([C@@H](C)O)NC(=O)[C@H](CC(N)=O)NC(=O)[C@@H]2CSSC[C@H](NC1=O)C(=O)N[C@@H](Cc1ccc(OCCN(C)C)cc1)C(=O)N[C@@H](Cc1ccc3ccccc3c1)C(=O)NC1(CCOCC1)C(=O)N[C@H](C(=O)N[C@@H](CO)C(=O)N[C@@H](Cc1cccnc1)C(=O)N(C)CC(N)=O)CCC(=O)NCCCCC(=O)N2 [compound 56] ([Ava]CNT[Trp(7-Me)]K(Ac)CY(Me2NCH2CH2)[2Nal][Thp]ES[3Pal][Sar]-NH2; disulfide 2-7; lactam N-11) = 86
CC(=O)NCCCC[C@@H]1NC(=O)[C@H](Cc2c[nH]c3c(C)cccc23)NC(=O)[C@H]([C@@H](C)O)NC(=O)[C@H](CC(N)=O)NC(=O)[C@@H]2CSSC[C@H](NC1=O)C(=O)N[C@@H](Cc1ccc(OCCN(C)C)cc1)C(=O)N[C@@H](Cc1ccc3ccccc3c1)C(=O)NC1(CCOCC1)C(=O)N[C@H](C(=O)N[C@@H](CC(N)=O)C(=O)N[C@@H](Cc1c[nH]cn1)C(N)=O)CCC(=O)NCCCCC(=O)N2 [compound 21] ([Ava]CNT[Trp(7-Me)]K(Ac)CY(Me2NCH2CH2)[2Nal][Thp]ENH-NH2; disulfide 2-7; lactam N-11) = 91
CC(=O)N[C@H]1CCCCNC(=O)[C@@H]2CSSC[C@H](NC(=O)[C@H](CCC(N)=O)NC(=O)[C@H](Cc3c[nH]c4ccccc34)NC1=O)C(=O)N[C@@H](Cc1ccc(OCCN)cc1)C(=O)N[C@@H](Cc1ccc3ccccc3c1)C(=O)NC1(CCOCC1)C(=O)N[C@H](C(=O)N[C@@H](CC(N)=O)C(=O)N[C@@H](CC(N)=O)C(N)=O)CCC(=O)N(C)CCCCC(=O)N2 [compound 13] (Ac-KWQC[AEF][2Nal][Thp]ENN-NH2; linker 1-4-8 via X3) = 73

Now let's try a different one.
Reported remaining at 1 h, 1 µM for CC(=O)N[C@H]1CCCCNC(=O)[C@@H]2CSSC[C@H](NC(=O)[C@H](CCC(N)=O)NC(=O)[C@H](Cc3c[nH]c4ccccc34)NC1=O)C(=O)N[C@@H](Cc1ccc(OCCN)cc1)C(=O)N[C@@H](Cc1ccc3ccccc3c1)C(=O)NC1(CCOCC1)C(=O)N[C@H](C(=O)N[C@@H](C)C(=O)NCC(N)=O)CCC(=O)N(C)CCCCC(=O)N2 [compound 17] (Ac-KWQC[AEF][2Nal][Thp]EAG-NH2; linker 1-4-8 via X3) : what is it?
71

###

Below, each entry is listed with its recorded solubility at 2 h.
Assay: Solubility testing of peptides at different pH
Format: physicochemical
Settings: 50 mM HCl buffer; 50 mM HCl pH 1.2; target concentration 1 mg/ml; 2 hours agitation; read-out: Solubility Buffer pH 1.2
Starred links: 1 amine or outer side, 2 acyl side, 3 side chain; linkers in the order of their positions; H or OH if unused. Positions of bridges follow the written chain, without caps; N, C: chain ends. Non-standard residues stand in square brackets, D forms with d. Residues, ends and D or L forms follow the SMILES beside them. X3 = CN(CCCCC(=O)N[C@@H](CS[*:2])C(=O)[*:1])[*:3]; 2Nal = N[C@@H](Cc1ccc2ccccc2c1)C(=O)O; AEF = NCCOc1ccc(C[C@H](N)C(=O)O)cc1; NMeN = CN[C@@H](CC(N)=O)C(=O)O; Aib = CC(C)(N)C(=O)O; Ahx = NCCCCCC(=O)O
// units = µg/mL; emit number, no label

CC(=O)N[C@H]1CCCCNC(=O)[C@@H]2CSSC[C@H](NC(=O)[C@H](CCC(N)=O)NC(=O)[C@H](Cc3c[nH]c4ccccc34)NC1=O)C(=O)N[C@@H](Cc1ccc(OCCN)cc1)C(=O)N[C@@H](Cc1ccc3ccccc3c1)C(=O)NC(C)(C)C(=O)N[C@H](C(=O)N[C@@H](C)C(=O)N[C@H](CC(C)C)C(N)=O)CCC(=O)N(C)CCCCC(=O)N2 [compound 19] (Ac-KWQC[AEF][2Nal][Aib]EA[dL]-NH2; linker 1-4-8 via X3) = 10

Attention now shifts to the item below.
Fill blank: measured solubility at 2 h of the molecule COc1ccc(C[C@@H]2NC(=O)[C@@H]3CSSC[C@H](NC(=O)CCCCCNC(=O)C[C@@H](C(=O)N[C@@H](CC(N)=O)C(=O)N[C@@H](CC(N)=O)C(N)=O)NC(=O)C(C)(C)NC(=O)[C@H](Cc4ccc5ccccc5c4)NC2=O)C(=O)N(C)[C@@H](CC(N)=O)C(=O)N[C@@H]([C@@H](C)O)C(=O)N[C@@H](Cc2c[nH]c4ccccc24)C(=O)N[C@@H](CCC(N)=O)C(=O)N3)cc1 [compound 6] ([Ahx]C[NMeN]TWQCY(Me)[2Nal][Aib]DNN-NH2; disulfide 2-7; lactam N-11) is ____.
40

###

remaining at 4 h, 1 µM: recorded values
Test system: Pancreatin
Test: Protease stability in simulated intestinal fluid (Pancreatin-SIF, FaSSIF)
Assay type: in vitro ADME
Details: 240 min, 1 μM peptide, 37° C., read-out: FaSSIF 240 (min), remaining percent of peptide
Starred links: 1 amine or outer side, 2 acyl side, 3 side chain; linkers in the order of their positions; H or OH if unused. Positions of bridges follow the written chain, without caps; N, C: chain ends. Non-standard residues stand in square brackets, D forms with d. Residues, ends and D or L forms follow the SMILES beside them. *: point of attachment. X3 = CN(CCCCC(=O)N[C@@H](CS[*:2])C(=O)[*:1])[*:3]; Trp(7-Me) = Cc1cccc2c(C[C@H](N)C(=O)O)c[nH]c12; X1 = O=C(CCCCN[*:3])N[C@@H](CS[*:2])C(=O)[*:1]; αMeLys(Me2) = CN(C)CCCC[C@](C)(N)C(=O)O; 2Nal = N[C@@H](Cc1ccc2ccccc2c1)C(=O)O; d2Nal = N[C@H](Cc1ccc2ccccc2c1)C(=O)O; AEF = NCCOc1ccc(C[C@H](N)C(=O)O)cc1; 3Pal = N[C@@H](Cc1cccnc1)C(=O)O; Thp = NC1(C(=O)O)CCOCC1; Me2NCH2CH2 = CN(C)CC*; Sar = CNCC(=O)O
The answer is to be given in %; state only the numeric part.

CC(=O)NCCCC[C@@H]1NC(=O)[C@H](Cc2c[nH]c3c(C)cccc23)NC(=O)[C@@H](NC(C)=O)CCCCNC(=O)[C@@H]2CSSC[C@H](NC1=O)C(=O)N[C@@H](Cc1ccc(OCCN(C)C)cc1)C(=O)N[C@H](Cc1ccc3ccccc3c1)C(=O)N[C@@](C)(CCCCN(C)C)C(=O)N[C@H](C(=O)N[C@@H](CC(N)=O)C(=O)N[C@@H](Cc1cccnc1)C(=O)N(C)CC(N)=O)CCC(=O)NCCCCC(=O)N2 [compound 149] (Ac-K[Trp(7-Me)]K(Ac)CY(Me2NCH2CH2)[d2Nal][αMeLys(Me2)]EN[3Pal][Sar]-NH2; linker 1-4-8 via X1) = 97

Here's the next entry for you.
Kindly state the measured remaining at 4 h, 1 µM obtained for CC(=O)N[C@H]1CCCCNC(=O)[C@@H]2CSSC[C@H](NC(=O)[C@H](CCC(N)=O)NC(=O)[C@H](Cc3c[nH]c4ccccc34)NC1=O)C(=O)N[C@@H](Cc1ccc(OCCN)cc1)C(=O)N[C@@H](Cc1ccc3ccccc3c1)C(=O)NC1(CCOCC1)C(=O)N[C@H](C(=O)N[C@@H](C)C(=O)N[C@H](CC(C)C)C(N)=O)CCC(=O)N(C)CCCCC(=O)N2 [compound 34] (Ac-KWQC[AEF][2Nal][Thp]EA[dL]-NH2; linker 1-4-8 via X3) with Pancreatin.
96
